Measured NA reuptake % inhibition [10 μmol] of individual entries
Test system: NA reuptake
PROCEDURE_TEXT: Inhibition of NA (noradrenaline) uptake in rat hypothalamus synaptosomes
Type: biochemical
EXPERIMENTAL_SETUP: synaptosomes from hypothalamus of male rat brains
Just the number please, in %, no unit attached.

Recorded NA reuptake % inhibition [10 μmol], per entry:
1) O=C(c1ccc(F)cc1)N1CCn2cccc2C1c1ccc(F)cc1F (stereo not drawn) [Example 19]; 28
2) COc1ccccc1C1c2cccn2CCN1C(=O)C1CCCC1 (stereo not drawn) [Example 2]; 36
3) Cc1ccccc1C(=O)N1CCn2cccc2C1c1ccc(N(C)C)cc1 (stereo not drawn) [Example 50]; 14
4) O=C(C1CC1)N1CCn2cccc2C1c1ccccc1F (stereo not drawn) [Example 6]; 13
5) COc1cccc(C2c3cccn3CCN2C(=O)c2ccco2)c1 (stereo not drawn) [Example 30]; 16
6) O=C(c1ccc(F)cc1)N1CCn2cccc2C1c1cccs1 (stereo not drawn) [Example 60]; 11

Input: If you can, please state the reported NA reuptake % inhibition [10 μmol] value of O=C(c1ccco1)N1CCn2cccc2C1c1ccccc1F (stereo not drawn) [Example 5] .
Output: 34

====

Test system: NA reuptake
PROCEDURE_TEXT: Inhibition of NA (noradrenaline) uptake in rat hypothalamus synaptosomes
Format: biochemical
EXPERIMENTAL_SETUP: synaptosomes from hypothalamus of male rat brains
// label = true if NA reuptake % inhibition [10 μmol] is not less than 20%, otherwise false

As a guide, the following entries are already answered.
1) O=C(c1cccs1)N1CCn2cccc2C1c1ccc2c(c1)OCCO2 (centres unmarked) [Example 36]; true
2) Cc1cccc(C2c3cccn3CCN2C(=O)CC(C)C)c1 (centres unmarked) [Example 15]; false
3) COc1ccccc1C(=O)N1CCn2cccc2C1c1ccccc1OC (centres unmarked) [Example 4]; false
4) O=C(c1ccccc1F)N1CCn2cccc2C1c1ccc(Cl)c(Cl)c1 (centres unmarked) [Example 63]; true

We now examine a further compound.
Input: Check this compound for NA reuptake % inhibition [10 μmol] at or above 20%: O=C(c1ccc2c(c1)OCO2)N1CCn2cccc2C1c1ccc2c(c1)OCCO2 (centres unmarked) [Example 33]
Output: true

====

TARGET_OF_ASSAY: Serotonin reuptake (Rattus norvegicus, UniProt P31652)
Construct: synaptosomes are freshly isolated from areas of the rat brain; from tissue; host or cells: rat brain synaptosomes (P2 fraction)
Sequence (P31652 whole entry): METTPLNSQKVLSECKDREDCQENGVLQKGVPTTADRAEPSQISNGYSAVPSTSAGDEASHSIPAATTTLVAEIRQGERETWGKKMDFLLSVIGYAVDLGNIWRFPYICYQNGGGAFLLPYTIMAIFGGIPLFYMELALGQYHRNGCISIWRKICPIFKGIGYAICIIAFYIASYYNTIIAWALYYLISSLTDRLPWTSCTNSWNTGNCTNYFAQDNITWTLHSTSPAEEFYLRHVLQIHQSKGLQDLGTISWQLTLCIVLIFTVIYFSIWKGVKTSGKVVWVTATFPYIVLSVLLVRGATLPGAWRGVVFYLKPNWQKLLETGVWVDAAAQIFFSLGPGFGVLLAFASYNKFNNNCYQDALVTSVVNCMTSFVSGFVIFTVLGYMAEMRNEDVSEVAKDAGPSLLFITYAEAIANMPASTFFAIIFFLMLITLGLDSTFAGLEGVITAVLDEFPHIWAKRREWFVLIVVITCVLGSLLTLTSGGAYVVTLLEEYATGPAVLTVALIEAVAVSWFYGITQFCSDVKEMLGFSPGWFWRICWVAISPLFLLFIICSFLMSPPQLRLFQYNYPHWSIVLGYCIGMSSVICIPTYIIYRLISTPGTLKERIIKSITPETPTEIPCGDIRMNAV
PROCEDURE_TEXT: Inhibition of 5HT (serotonin) uptake in rat brain synaptosomes
Type: biochemical
EXPERIMENTAL_SETUP: 10 μmol; synaptosomes from rat brain
METRIC_NAME: inhibition at 10 µM (%)
Just the number please, in %, no unit attached.

Recorded inhibition at 10 µM, per entry:
1) COc1ccccc1C(=O)N1CCn2cccc2C1c1ccccc1OC (centres unmarked); 82
2) O=C(c1ccco1)N1CCn2cccc2C1c1ccc(Cl)c(Cl)c1 (centres unmarked); 57
3) COc1ccccc1C1c2cccn2CCN1C(=O)C1CCCC1 (centres unmarked); 79
4) Cc1cccc(C2c3cccn3CCN2C(=O)c2cccc(F)c2)c1 (centres unmarked); 54

Proceeding to the next molecule to report its inhibition at 10 µM.
Input: If you can, please state the reported inhibition at 10 µM value of Cc1ccccc1C(=O)N1CCn2cccc2C1c1ccccc1F (centres unmarked) .
Output: 37

====

Tested on: NA reuptake
PROCEDURE_TEXT: Inhibition of NA (noradrenaline) uptake in rat hypothalamus synaptosomes
Assay type: biochemical
EXPERIMENTAL_SETUP: synaptosomes from hypothalamus of male rat brains
METRIC_NAME: NA reuptake % inhibition [10 μmol]

Recorded NA reuptake % inhibition [10 μmol], per entry:
1) O=C(C1CCCC1)N1CCn2cccc2C1c1ccc(Cl)c(Cl)c1 (stereo not shown); 29%
2) O=C(c1ccc2c(c1)OCO2)N1CCn2cccc2C1c1cccc(Cl)c1 (stereo not shown); 41%
3) Cc1ccccc1C1c2cccn2CCN1C(=O)C1CCCC1 (stereo not shown); 30%

Input: If you can, please state the reported NA reuptake % inhibition [10 μmol] value of COc1ccccc1C(=O)N1CCn2cccc2C1c1ccccc1 (stereo not shown) .
Output: 15%

Input: If you can, please state the reported NA reuptake % inhibition [10 μmol] value of O=C(CCC1CCCCC1)N1CCn2cccc2C1c1cccs1 (stereo not shown) .
Output: 19%

Input: If you can, please state the reported NA reuptake % inhibition [10 μmol] value of Cc1ccccc1C(=O)N1CCn2cccc2C1c1ccccc1 (stereo not shown) .
Output: 23%

Input: If you can, please state the reported NA reuptake % inhibition [10 μmol] value of O=C(c1ccc2c(c1)OCO2)N1CCn2cccc2C1c1ccccc1F (stereo not shown) .
Output: 27%

====

TARGET_OF_ASSAY: Serotonin reuptake (Rattus norvegicus, UniProt P31652)
Construct: synaptosomes are freshly isolated from areas of the rat brain; from tissue; host or cells: rat brain synaptosomes (P2 fraction)
PROCEDURE_TEXT: Inhibition of 5HT (serotonin) uptake in rat brain synaptosomes
Type: biochemical
EXPERIMENTAL_SETUP: 10 μmol; synaptosomes from rat brain
METRIC_NAME: inhibition at 10 µM
Output should be the measured figure followed by the unit it is expressed in.

1. O=C(c1ccc(F)cc1)N1CCn2cccc2C1c1ccc2c(c1)OCCO2 (stereo not shown); 58%

Proceeding to the next compound to report its inhibition at 10 µM.
Input: If you can, please state the reported inhibition at 10 µM value of CN(C)c1ccc(C2c3cccn3CCN2C(=O)c2ccc(F)cc2)cc1 (stereo not shown) .
Output: 47%

====

Measured inhibition at 10 µM of individual entries
TARGET_OF_ASSAY: Serotonin reuptake (Rattus norvegicus, UniProt P31652)
Construct: synaptosomes are freshly isolated from areas of the rat brain; from tissue; host or cells: rat brain synaptosomes (P2 fraction)
PROCEDURE_TEXT: Inhibition of 5HT (serotonin) uptake in rat brain synaptosomes
Assay type: biochemical
EXPERIMENTAL_SETUP: 10 μmol; synaptosomes from rat brain
Just the number please, in %, no unit attached.

Recorded inhibition at 10 µM, per entry:
1) O=C(c1cccs1)N1CCn2cccc2C1c1ccc2c(c1)OCCO2 (stereo not drawn); 59
2) O=C(c1ccccc1F)N1CCn2cccc2C1c1ccc(Cl)c(Cl)c1 (stereo not drawn); 65
3) O=C(c1ccc(F)cc1)N1CCn2cccc2C1c1ccccc1 (stereo not drawn); 32

Input: If you can, please state the reported inhibition at 10 µM value of Cc1ccccc1C(=O)N1CCn2cccc2C1c1ccccc1C (stereo not drawn) .
Output: 38

Input: If you can, please state the reported inhibition at 10 µM value of COc1ccccc1C(=O)N1CCn2cccc2C1c1ccc(Cl)cc1 (stereo not drawn) .
Output: 34

Input: If you can, please state the reported inhibition at 10 µM value of O=C(c1ccco1)N1CCn2cccc2C1c1ccccc1F (stereo not drawn) .
Output: 11

====

Measured inhibition at 10 µM of individual entries
TARGET_OF_ASSAY: Serotonin reuptake (Rattus norvegicus)
Construct: synaptosomes are freshly isolated from areas of the rat brain; from tissue; host or cells: rat brain synaptosomes (P2 fraction)
PROCEDURE_TEXT: Inhibition of 5HT (serotonin) uptake in rat brain synaptosomes
Format: biochemical
EXPERIMENTAL_SETUP: 10 μmol; synaptosomes from rat brain
Just the number please, in %, no unit attached.

Recorded inhibition at 10 µM, per entry:
1. CC(C)C(=O)N1CCn2cccc2C1c1ccc(Cl)c(Cl)c1 (centres unmarked); 46
2. O=C(c1cccs1)N1CCn2cccc2C1c1ccc(Cl)c(Cl)c1 (centres unmarked); 43
3. Cc1cccc(C2c3cccn3CCN2C(=O)CC(C)C)c1 (centres unmarked); 28
4. O=C(c1ccccc1F)N1CCn2cccc2C1c1ccccc1F (centres unmarked); 18

Input: If you can, please state the reported inhibition at 10 µM value of Cc1ccccc1C1c2cccn2CCN1C(=O)C1CCCC1 (centres unmarked) .
Output: 50

====

TARGET_OF_ASSAY: Serotonin reuptake (Rattus norvegicus, UniProt P31652)
Construct: synaptosomes are freshly isolated from areas of the rat brain; from tissue; host or cells: rat brain synaptosomes (P2 fraction)
PROCEDURE_TEXT: Inhibition of 5HT (serotonin) uptake in rat brain synaptosomes
Assay type: biochemical
EXPERIMENTAL_SETUP: 10 μmol; synaptosomes from rat brain
METRIC_NAME: inhibition at 10 µM (%)
Just the number please, in %, no unit attached.

1. CC1c2cccn2CCN1C(=O)/C=C/c1ccc(SC(F)(F)F)cc1 (centres unmarked); 32
2. O=C(c1ccc2c(c1)OCO2)N1CCn2cccc2C1c1cccc(Cl)c1 (centres unmarked); 38
3. COc1cccc(C2c3cccn3CCN2C(=O)c2ccco2)c1 (centres unmarked); 51

Input: If you can, please state the reported inhibition at 10 µM value of Cc1cccc(C2c3cccn3CCN2C(=O)c2cccs2)c1 (centres unmarked) .
Output: 27

Input: If you can, please state the reported inhibition at 10 µM value of O=C(CCC1CCCCC1)N1CCn2cccc2C1c1cccs1 (centres unmarked) .
Output: 53

Input: If you can, please state the reported inhibition at 10 µM value of O=C(c1ccc2c(c1)OCO2)N1CCn2cccc2C1c1ccc2c(c1)OCCO2 (centres unmarked) .
Output: 52

Input: If you can, please state the reported inhibition at 10 µM value of COc1ccccc1C1c2cccn2CCN1C(=O)c1cccc(F)c1 (centres unmarked) .
Output: 26

Input: If you can, please state the reported inhibition at 10 µM value of COc1ccccc1C1c2cccn2CCN1C(=O)c1ccccc1F (centres unmarked) .
Output: 47

Input: If you can, please state the reported inhibition at 10 µM value of Cc1ccccc1C(=O)N1CCn2cccc2C1c1cccs1 (centres unmarked) .
Output: 44

Input: If you can, please state the reported inhibition at 10 µM value of O=C(c1cccc(F)c1)N1CCn2cccc2C1c1ccccc1 (centres unmarked) .
Output: 42

Input: If you can, please state the reported inhibition at 10 µM value of O=C(CCCCc1ccccc1)N1CCn2cccc2C1c1cccs1 (centres unmarked) .
Output: 25

Input: If you can, please state the reported inhibition at 10 µM value of Cc1ccccc1C1c2cccn2CCN1C(=O)c1ccccc1F (centres unmarked) .
Output: 29

Input: If you can, please state the reported inhibition at 10 µM value of CCC(C)C(=O)N1CCn2cccc2C1c1ccccc1C (centres unmarked) .
Output: 26

Input: If you can, please state the reported inhibition at 10 µM value of O=C(c1ccc(F)cc1)N1CCn2cccc2C1c1cccs1 (centres unmarked) .
Output: 37

Input: If you can, please state the reported inhibition at 10 µM value of CC1c2cccn2CCN1C(=O)/C=C/c1ccc(F)cc1 (centres unmarked) .
Output: 25
